Parameter growth inhibition: see the listing below.
test_summary: NCI Yeast Anticancer Drug Screen. Data for the cln2 rad14 strain (AID 165);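 also: 0% = growth equal to vehicle treated cultures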
condition_set: S. cerevisiae cln2 rad14 strain, at 50.0 µM, hits give high values
This is part of a sample that, as a whole, favours compounds with a hit. Of some 79,000 tested, about 15% had one in any assay.
metric_name: growth inhibition (%)

>>> obs_value("CC(=O)NC(Cc1ccc(N(CCCl)CCCl)cc1)C(=O)NC(CC(C)C)C(=O)O (stereo not drawn)")
5.75
>>> obs_value("O=C([O-])C[SH2+].[Co+3].[NH-]CC[NH-].[NH-]CC[NH-].[O-][Cl+3]([O-])([O-])O")
-16.6
>>> obs_value("Cc1csc2n/c(=N/[N+](=O)[O-])sn12")
-12.5

Data origin: PubChem BioAssay (NCI)
